Source: PubChem BioAssay (NCATS)

assay: NFAT Signaling Pathway (AID 444); settings: Jurkat NFAT-bla M1, carbachol, beta-lactamase ratio, 5 h; at 7.69 µM (top of the series);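 note: carbachol stimulus at about its EC50 of 1 µM final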
Inconclusive results are not listed.
Short version: activity change, negative = inhibition at least -10% is satisfied, less is not satisfied.

Req: Entry CN1CCN(c2ncc3ncc(=O)n(C)c3n2)CC1 : is its activity change, negative = inhibition no less than -10%?
Resp: satisfied

Req: Please indicate if the recorded activity change, negative = inhibition for N#Cc1ccc(CN2CC[C@@]3(CCCN(C(=O)Oc4ccccc4)C3)C2)cc1 meets or exceeds -10%.
Resp: not satisfied

Req: Hi, just wondering whether N#Cc1ccc(CN2CC3(CCNCC3)C2)cc1 shows activity change, negative = inhibition of -10% or higher.
Resp: not satisfied

Req: In plain terms: is recorded activity change, negative = inhibition at least -10% for O=C(c1ccncc1)N1CCC[C@@]2(CCN(Cc3nccs3)C2)C1 ?
Resp: satisfied

Req: Textbook exercise: given the entry CC(C)CN1CC[C@@]2(CCCN(C(=O)c3ccncc3)C2)C1 , state whether its activity change, negative = inhibition is greater than or equal to -10%.
Resp: not satisfied

Req: // inclusive: activity change, negative = inhibition at least -10%? input: c1ccc(N2CCCC3(CCNCC3)C2)nc1
Resp: not satisfied

Req: Can c1cc(CN2CCCC3(CCNCC3)C2)ccn1 be said to have activity change, negative = inhibition at or above -10%?
Resp: not satisfied

Req: Test whether the compound Cc1noc(C)c1C(=O)N1CCC[C@@]2(CCN(CC(C)C)C2)C1 records activity change, negative = inhibition of -10% or higher.
Resp: satisfied

Req: Reported activity change, negative = inhibition reaches at least -10% for Cc1ccccc1-c1cncnc1NCCc1cnc[nH]1 ?
Resp: satisfied

Req: Determine whether measured activity change, negative = inhibition meets or exceeds -10% for CN1CC[C@@]2(CCCN(C(=O)c3csnn3)C2)C1
Resp: not satisfied

Req: Record CC(C)CN1CCC2(CC1)CCN(S(C)(=O)=O)CC2 ; criterion: activity change, negative = inhibition no lower than -10%. Met?
Resp: satisfied

Req: Does activity change, negative = inhibition meet or surpass -10% for O=C(Nc1ccccc1)N1CCC2(CC1)CCN(C(=O)Oc1ccccc1)CC2 ?
Resp: satisfied

Req: Say whether N#Cc1ccc(CN2CC[C@@]3(CCCNC3)C2)cc1 shows activity change, negative = inhibition of -10% or more.
Resp: satisfied

Req: hey, is activity change, negative = inhibition for this one >= -10%? CN1CCCC2(CCN(C(=O)c3ccncc3)CC2)C1
Resp: not satisfied

Req: Given c1ccc(N2CC3(CCNCC3)C2)cc1 , state whether its activity change, negative = inhibition is at least -10%.
Resp: satisfied

Req: For this compound, is measured activity change, negative = inhibition -10% or higher? c1cnc(N2CC3(CCNCC3)C2)nc1
Resp: satisfied

Req: Does activity change, negative = inhibition meet or surpass -10% for c1cnc(N2CC[C@@]3(CCCNC3)C2)nc1 ?
Resp: not satisfied

Req: Could you please find out whether CC(C)CN1CC2(CCN(C(=O)Oc3ccccc3)CC2)C1 has activity change, negative = inhibition that meets -10% or exceeds it?
Resp: not satisfied

Req: Check the entry O=C(Oc1ccccc1)N1CCC[C@@]2(CCN(C(c3ccccc3)c3ccccc3)C2)C1 : does activity change, negative = inhibition equal or exceed -10%?
Resp: not satisfied

Req: Determine whether this compound has activity change, negative = inhibition no lower than -10%: N#Cc1cccc(NC(=O)N2CC[C@@]3(CCCN(C(=O)Oc4ccccc4)C3)C2)c1
Resp: not satisfied

Req: Quick check: does COc1ccc(NC(=O)N2CC3(CCN(C(=O)Oc4ccccc4)CC3)C2)cc1 have activity change, negative = inhibition greater than or equal to -10%?
Resp: satisfied

Req: Kindly determine if activity change, negative = inhibition recorded for Clc1ccccc1-c1cncnc1NCCc1cnc[nH]1 is above or exactly -10%.
Resp: not satisfied

Req: Threshold query (activity change, negative = inhibition >= -10%) on c1csc(CN2CCC3(CCNCC3)CC2)n1
Resp: satisfied

###

assay: Secretion counterscreen for inhibitors of the SERCaMP assay screened against the NCATS CANVASS Library (AID 1347390); conditions: SH-SY5Y constitutive GLuc secretion, luminescence, 20 h; series mostly up to 76.6 µM;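 note: light from luciferase secreted into medium read as a measure of general secretion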
Results filed as inconclusive are left out. Calls of active or inactive are those of the source. Calls follow the shape of the dose curve; as a rule, active = well fitted inhibition curve with a large enough effect; inconclusive = small, poorly fitted or top-dose-only effect; inactive = no such curve, though single readings can be large or run the other way.
Just give me one of these, please: active, inactive

Req: Check the results log: what was the call for C/C(=C\[C@H](C)C(=O)C[C@H](O)CC1CC(=O)NC(=O)C1)[C@@H]1OC(=O)/C=C/CC/C=C/C=C/[C@@H]1C ?
Resp: active

Req: # outcome recorded in this test, key = C1=C2CCCN[C@H]2C2CC1[C@H]1CCCCN1C2 (some centres undefined)
Resp: inactive

Req: Dear all, I need the recorded test outcome for C/C=C1/CN2CC[C@]34C(=C(C(=O)OC)[C@H]1C[C@H]23)Nc1ccccc14 , thank you.
Resp: inactive

Req: // param item: CCCC[C@@H]1CC[C@H]2CCCC(CCCO)N12 (some centres undefined) ; yields the recorded call
Resp: inactive

Req: Record request — test call for CC[C@]12C=CCN3CC[C@]4(C(=C(C(=O)OC)C1)Nc1ccccc14)[C@@H]32
Resp: inactive

Req: Outcome? C/C=C1/CN2CC[C@@]34c5ccccc5N(C)[C@@H]3[C@@H]2C[C@@H]1[C@H]4C(=O)OC
Resp: inactive

Req: Per the assay record, what outcome was assigned to CCCC[C@@H](C)/C=C1/CN2CCC[C@H]2[C@@](C)(O)[C@@H]1O ?
Resp: inactive

Req: Recorded call for CC[C@@H]1CN2CCc3c([nH]c4cccc(OC)c34)[C@@H]2C[C@@H]1/C(=C\OC)C(=O)OC ?
Resp: inactive

Req: Test call for this molecule, please: CO[C@@H](/C=C/CC/C=C/C(=O)O)[C@@H](O)[C@H](C)/C=C(\C)[C@H](O)[C@H](C)C(=O)CCCC1CC(=O)NC(=O)C1
Resp: inactive

###

assay: Cytotoxicity counterscreen for inhibitors of SARS-CoV-2 cell entry (AID 1645845); conditions: cell viability (SARS-CoV-2 entry assay cells); series mostly up to 57.1 µM; note: nearly all actives have a fitted effect of over 50% in size
Results filed as inconclusive are left out. Calls of active or inactive are those of the source. Calls follow the shape of the full dose curve.
// one of active, inactive, no free text

Req: Tell me the recorded outcome of this test for CO[C@H]1C[C@H](O[C@@H]2[C@H](C)O[C@H](O[C@@H]3/C(C)=C/C[C@@H]4C[C@@H](C[C@]5(C=C[C@H](C)[C@@H](C6CCCCC6)O5)O4)OC(=O)[C@@H]4C=C(C)C(O)[C@H]5OC/C(=C\C=C\[C@@H]3C)[C@]54O)C[C@@H]2OC)O[C@@H](C)[C@@H]1O (some centres undefined) .
Resp: inactive

Req: What did this assay record as the result for CNS(=O)(=O)Nc1nccc(Cc2c(C)c3ccc(Oc4ncccn4)cc3oc2=O)c1F ?
Resp: active

Req: Lab log entry: CC(C)C(=O)OCC(=O)[C@@]12O[C@H](C3CCCCC3)O[C@@H]1C[C@H]1[C@@H]3CCC4=CC(=O)C=C[C@]4(C)[C@H]3[C@@H](O)C[C@@]12C — outcome as called in the assay?
Resp: inactive

Req: Which outcome was entered for the compound Cc1cc(CC(C)C[Si](C)(O[Si](C)(C)C)O[Si](C)(C)C)c(O)c(-n2nc3ccccc3n2)c1 (centres undefined) in this test?
Resp: inactive

###

assay: Cytotoxicity counterscreen for inhibitors of SARS-CoV-2 cell entry (AID 1645845); conditions: cell viability (SARS-CoV-2 entry assay cells); at 57.1 µM (top of the series) unless noted; note: nearly all actives have a fitted effect of over 50% in size
Inconclusive results are not listed. The source made the active and inactive calls. Calls come from the whole dose curve.
quantity measured: outcome

{"compound": "C[N+](C)(C)CCOP(=O)([O-])OP(=O)(O)OC[C@H]1OC(n2ccc(N)nc2=O)[C@H](O)[C@@H]1O (stereo partly drawn)", "outcome": "inactive [at 0.702 µM]"}
{"compound": "O=C(O)c1cc(O)c2c(c1)[O][Bi][O]2", "outcome": "inactive [at 0.702 µM]"}
{"compound": "CC(C)(S)[C@H](N)C(=O)O", "outcome": "inactive [at 5.25 µM]"}
{"compound": "O=P(O)(O)C(O)(Cc1cnc2ccccn12)P(=O)(O)O", "outcome": "inactive [at 0.702 µM]"}

# next compound below
Req: Using the record for CCC(CC)[C@H](NC(C)=O)[C@@H]1[C@H](O)[C@@H](C(=O)O)C[C@H]1N=C(N)N , state its measured outcome.
Resp: inactive [at 0.702 µM]
